meta.source: paper PMC6908506

molecular target: FMDV O/Mya/98 146S antigen (Foot-and-mouth disease virus serotype …, UniProt G8JKC2, strain); experiment: cell-based or functional assay
Reported values of virus neutralizing test on BHK-21 cells, IC50 for individual entries
Reply numerically in µg/mL, unit not repeated.

binder	measurement
F169 (antibody, V domains shown) VH: QVQLRESGPSLVKPSQTLSLTCTVSGFSLSTYGVAWVRQAPGKALEWIGGISGRGSGSEYYNPPLQSRLSITKDTSRSQVFLSVRTVAPEDTATYYCVKCIDSWCNYDDSGDIDAWGQGLLVTVSS VL: QAVLTQPSSVSGSLGQRVSITCSGSTSNIGKCDVGWYQRVPESGLRTIIYGNSKRPSGVPDRFSGSKSGTVATLTISSLQAEDEAEYFCATGDYSLRTAVFGSGTTLIVL	5.56
C9 (antibody, V domains shown) VH: QVQLRESGPSPVKPSQTLSLTCTVSGFSLSSYAVAWVRQAPGKALEWVAGISGGGSTSYNAALKSRLRITKDNSKSQVALSLSSVTSEDTATYYCVKCANDYGSYFCYNYDYGYDFYVDAWGQGLLVTVSS VL: QAVLTQPSSVSGSLGQRVSITCAGSSSNIGTYSVGWYQQVPGSGLTTIIYETTGRPKGVPDRFSGSKSGNTATLTITSLQAEDEADYFCVTYELGSGAVFGSGTTLTVL	1.82
B77 (antibody, V domains shown) VH: QVQLRESGPSLVKPSQTLSLTCTISGFSLSSYTIGWVRQAPGKALEWIGDMSNGGMPYYNPALKSRLSITKHNSKSQVRLSVSSVTPEDTATYYCAKSRYTGDGSIGLYGVDAWGQGLLITVSS VL: QAVLTQPSSVSGSLGQRVSITCSGTYSNVGTGNYVSWFQQIPGSAPRTLIYSVTNRASGVPDRFSGSRSGHTATLTISSLQAEDEADYFCLSWQSGNTALFGSGTTLTVL	3.91
C5 (antibody, V domains shown) VH: QVQLRESGPSLVKPSQTLSLTCTVSGFSLSSYGVGWVRQAPGRALEFLADIYSDGSTTYNLALKSRLSIMKDNSKSEVSLSLSSVTTEDTATYYCAKSSRGVGWGDGLHYNENDAGAWGQGLLVTVSS VL: QAVLSQPPSVSGSLGQTVTIPCTGSSNNIGILGVSWYQQIPGSAPRTLVYNNNKRPSGVADRFSGTKSGNTGTLTIASLQAEDEADYYCASADPNFGGGTRVTVL	4.69

Provide only the value of recorded virus neutralizing test on BHK-21 cells, IC50 for B74 (antibody) VH: QVQLRESGPGLVKPSQTLSLTCTASGFSLSIKAVGWVRQAPGKALEWLGSIDTGGNTGYNPGLKSRLSITKDNSKSQVSLSLSSVTTEDSATYYCATVHQETKKSCSDGYYYRNECGAYGDCTVGNCCCSYASDYCNWCDFRRVTPTYTYEHHVEAWGQGLLVTVSS VL: QAVLTQPSSVSGSLGQRVSITCSGSSGNVGNGYVSWYQLIPGSAPRTLIYGDTTRVSGVPDRFSGSRSGNTATLTISSLQAEDEADYFCASAEDSSNNAVFGSGTTLTVL
7.81
